// data source = ChEMBL document CHEMBL4808183

System: Influenza A virus
Assay Protocol: Antiviral activity against Influenza virus
Assay type: functional
Calls of active or inactive are those of the source. The calls are words filed in the database; no cut-off is given here.
Measured Parameter: Activity

Test Smiles | Endpoint Result
C=C(C)[C@@H]1CC[C@]2(C(=O)O)CC[C@]3(C)[C@H](CC[C@@H]4[C@@]5(C)Cc6nnn(CCc7c[nH]c8ccc(OC)cc78)c6C(C)(C)[C@@H]5CC[C@]43C)[C@@H]12 | inactive
C=C(C)[C@@H]1CC[C@]2(C(=O)O)CC[C@]3(C)[C@H](CC[C@@H]4[C@@]5(C)Cc6nnn(Cc7ccco7)c6C(C)(C)[C@@H]5CC[C@]43C)[C@@H]12 | inactive
C=C(C)[C@@H]1CC[C@]2(C(=O)O)CC[C@]3(C)[C@H](CC[C@@H]4[C@@]5(C)Cc6nnn(CC7CCCCC7)c6C(C)(C)[C@@H]5CC[C@]43C)[C@@H]12 | inactive
C=C(C)[C@@H]1CC[C@]2(C(=O)O)CC[C@]3(C)[C@H](CC[C@@H]4[C@@]5(C)Cc6nnn([C@H](C)c7ccccc7)c6C(C)(C)[C@@H]5CC[C@]43C)[C@@H]12 | inactive
C=C(C)[C@@H]1CC[C@]2(C(=O)O)CC[C@]3(C)[C@H](CC[C@@H]4[C@@]5(C)Cc6nnn(Cc7ccc(F)cc7)c6C(C)(C)[C@@H]5CC[C@]43C)[C@@H]12 | inactive
C=C(C)[C@@H]1CC[C@]2(C(=O)O)CC[C@]3(C)[C@H](CC[C@@H]4[C@@]5(C)Cc6nnn(Cc7ccc8c(c7)OCO8)c6C(C)(C)[C@@H]5CC[C@]43C)[C@@H]12 | inactive

Name the recorded Activity for C=C(C)[C@@H]1CC[C@]2(C(=O)O)CC[C@]3(C)[C@H](CC[C@@H]4[C@@]5(C)Cc6nnn(Cc7ccncc7)c6C(C)(C)[C@@H]5CC[C@]43C)[C@@H]12 .
inactive

Name the recorded Activity for C=C(C)[C@@H]1CC[C@]2(C(=O)O)CC[C@]3(C)[C@H](CC[C@@H]4[C@@]5(C)Cc6nnn(Cc7ccc(C(F)(F)F)cc7)c6C(C)(C)[C@@H]5CC[C@]43C)[C@@H]12 .
inactive

Name the recorded Activity for C=C(C)[C@@H]1CC[C@]2(C(=O)O)CC[C@]3(C)[C@H](CC[C@@H]4[C@@]5(C)Cc6nnn(Cc7cccc8[nH]ccc78)c6C(C)(C)[C@@H]5CC[C@]43C)[C@@H]12 .
inactive

Name the recorded Activity for C=C(C)[C@@H]1CC[C@]2(C(=O)O)CC[C@]3(C)[C@H](CC[C@@H]4[C@@]5(C)Cc6nnn(CCO)c6C(C)(C)[C@@H]5CC[C@]43C)[C@@H]12 .
inactive

* * *

Assay Protocol: Selectivity index, ratio of CC50 for cytotoxicity against mock-infected human embryonic lung fibroblast cells incubated for 5 days by MTS assay to EC50 for antiviral activity against Human coronavirus 229E infected in human embryonic lung fibroblast cells assessed as reduction in virus-induced cytopathic effect incubated for 5 days by MTS cell viability assay
Format: toxicity, cell-based
Condition Details: time 5 day, read-out: Ratio CC50/EC50
selectivity ratio at 120 h less than 7 is true; selectivity ratio at 120 h greater than or equal to 7 is false.

Would you please look over these solved cases?
Test Smiles | Label Class
C=C(C)[C@@H]1CC[C@]2(C(=O)O)CC[C@]3(C)[C@H](CC[C@@H]4[C@@]5(C)Cc6nnn(Cc7ccc(N(C)C)cc7)c6C(C)(C)[C@@H]5CC[C@]43C)[C@@H]12 | false
C=C(C)[C@@H]1CC[C@]2(C(=O)O)CC[C@]3(C)[C@H](CC[C@@H]4[C@@]5(C)Cc6nnn([C@H](C)c7ccccc7)c6C(C)(C)[C@@H]5CC[C@]43C)[C@@H]12 | false
C=C(C)[C@@H]1CC[C@]2(C(=O)O)CC[C@]3(C)[C@H](CC[C@@H]4[C@@]5(C)Cc6nnn(Cc7ccc(F)cc7)c6C(C)(C)[C@@H]5CC[C@]43C)[C@@H]12 | true

Just wondering, is selectivity ratio at 120 h of C=C(C)[C@@H]1CC[C@]2(C(=O)O)CC[C@]3(C)[C@H](CC[C@@H]4[C@@]5(C)Cc6nn[nH]c6C(C)(C)[C@@H]5CC[C@]43C)[C@@H]12 below 7?
true

Just wondering, is selectivity ratio at 120 h of C=C(C)[C@@H]1CC[C@]2(C(=O)O)CC[C@]3(C)[C@H](CC[C@@H]4[C@@]5(C)Cc6nnn(CCc7c[nH]c8ccccc78)c6C(C)(C)[C@@H]5CC[C@]43C)[C@@H]12 below 7?
true

Just wondering, is selectivity ratio at 120 h of C=C(C)[C@@H]1CC[C@]2(C(=O)O)CC[C@]3(C)[C@H](CC[C@@H]4[C@@]5(C)Cc6nnn([C@@H](C)c7ccccc7)c6C(C)(C)[C@@H]5CC[C@]43C)[C@@H]12 below 7?
false

Just wondering, is selectivity ratio at 120 h of C=C(C)[C@@H]1CC[C@]2(C(=O)O)CC[C@]3(C)[C@H](CC[C@@H]4[C@@]5(C)Cc6nnn(Cc7cc(OC)c(OC)c(OC)c7)c6C(C)(C)[C@@H]5CC[C@]43C)[C@@H]12 below 7?
true

Just wondering, is selectivity ratio at 120 h of C=C(C)[C@@H]1CC[C@]2(C(=O)O)CC[C@]3(C)[C@H](CC[C@@H]4[C@@]5(C)Cc6nnn(Cc7ccc8c(c7)OCO8)c6C(C)(C)[C@@H]5CC[C@]43C)[C@@H]12 below 7?
false

* * *

Assay Protocol: Cytotoxicity against mock-infected human embryonic lung fibroblast cells incubated for 5 days by MTS assay
Type: cell-based
Condition Details: time 5 day
Measured Parameter: CC50 at 120 h (µM)
Give the number; µM is assumed, so skip it.

Test Smiles | Measured Parameter | Endpoint Result
C=C(C)[C@@H]1CC[C@]2(C(=O)O)CC[C@]3(C)[C@H](CC[C@@H]4[C@@]5(C)Cc6nnn(Cc7ccncc7)c6C(C)(C)[C@@H]5CC[C@]43C)[C@@H]12 | CC50 at 120 h | 17

Name the recorded CC50 at 120 h for C=C(C)[C@@H]1CC[C@]2(C(=O)O)CC[C@]3(C)[C@H](CC[C@@H]4[C@@]5(C)Cc6nnn(CCCCCCC)c6C(C)(C)[C@@H]5CC[C@]43C)[C@@H]12 .
16

Name the recorded CC50 at 120 h for C=C(C)[C@@H]1CC[C@]2(C(=O)O)CC[C@]3(C)[C@H](CC[C@@H]4[C@@]5(C)Cc6nnn(Cc7cc(OC)cc(OC)c7)c6C(C)(C)[C@@H]5CC[C@]43C)[C@@H]12 .
17

Name the recorded CC50 at 120 h for C=C(C)[C@@H]1CC[C@]2(C(=O)O)CC[C@]3(C)[C@H](CC[C@@H]4[C@@]5(C)Cc6nnn(CCO)c6C(C)(C)[C@@H]5CC[C@]43C)[C@@H]12 .
4.9

Name the recorded CC50 at 120 h for C=C(C)[C@@H]1CC[C@]2(C(=O)O)CC[C@]3(C)[C@H](CC[C@@H]4[C@@]5(C)Cc6nnn([C@@H](C)c7ccccc7)c6C(C)(C)[C@@H]5CC[C@]43C)[C@@H]12 .
49

* * *

Each entry below carries its recorded selectivity ratio at 120 h.
Assay Protocol: Selectivity index, ratio of CC50 for cytotoxicity against mock-infected human embryonic lung fibroblast cells incubated for 5 days by MTS assay to EC50 for antiviral activity against Human coronavirus 229E infected in human embryonic lung fibroblast cells assessed as reduction in virus-induced cytopathic effect incubated for 5 days by MTS cell viability assay
Type: toxicity, cell-based
Condition Details: time 5 day, read-out: Ratio CC50/EC50

Solved cases (5 shown):
Compound | selectivity ratio at 120 h
C=C(C)[C@@H]1CC[C@]2(C(=O)O)CC[C@]3(C)[C@H](CC[C@@H]4[C@@]5(C)Cc6nnn(Cc7ccccc7)c6C(C)(C)[C@@H]5CC[C@]43C)[C@@H]12 | 14
CC(C)[C@@H]1CC[C@]2(C(=O)O)CC[C@]3(C)[C@H](CC[C@@H]4[C@@]5(C)Cc6nnn([C@@H](C)c7ccccc7)c6C(C)(C)[C@@H]5CC[C@]43C)[C@@H]12 | > 7.6
C=C(C)[C@@H]1CC[C@]2(C(=O)O)CC[C@]3(C)[C@H](CC[C@@H]4[C@@]5(C)Cc6nnn(Cc7cccc8[nH]ccc78)c6C(C)(C)[C@@H]5CC[C@]43C)[C@@H]12 | 27
N#C[C@@]1(c2ccc3c(N)ncnn23)O[C@H](CO)[C@@H](O)[C@H]1O [GS-441524] | > 44
C=C(C)[C@@H]1CC[C@]2(C(=O)O)CC[C@]3(C)[C@H](CC[C@@H]4[C@@]5(C)Cc6nnn(Cc7ccco7)c6C(C)(C)[C@@H]5CC[C@]43C)[C@@H]12 | 8

Name the recorded selectivity ratio at 120 h for C=C(C)[C@@H]1CC[C@]2(C(=O)O)CC[C@]3(C)[C@H](CC[C@@H]4[C@@]5(C)Cc6nnn(CCc7c[nH]c8ccc(OC)cc78)c6C(C)(C)[C@@H]5CC[C@]43C)[C@@H]12 .
10

Name the recorded selectivity ratio at 120 h for C=C(C)[C@@H]1CC[C@]2(C(=O)O)CC[C@]3(C)[C@H](CC[C@@H]4[C@@]5(C)Cc6nnn(CCCCCCC)c6C(C)(C)[C@@H]5CC[C@]43C)[C@@H]12 .
8
